# Galectin-8 (Homo sapiens, UniProt O00214): Kd values follow
# Sequence (O00214 whole entry): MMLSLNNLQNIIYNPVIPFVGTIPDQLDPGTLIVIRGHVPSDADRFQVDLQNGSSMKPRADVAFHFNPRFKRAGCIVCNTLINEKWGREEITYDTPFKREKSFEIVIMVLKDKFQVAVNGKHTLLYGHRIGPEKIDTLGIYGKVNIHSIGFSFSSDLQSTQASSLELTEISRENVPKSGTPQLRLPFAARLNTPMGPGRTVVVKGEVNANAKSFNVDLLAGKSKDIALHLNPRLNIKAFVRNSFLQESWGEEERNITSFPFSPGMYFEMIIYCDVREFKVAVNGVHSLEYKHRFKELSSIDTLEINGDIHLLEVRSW
Recorded Metric: Kd

>>> value_observed("CO[C@@H]1O[C@H](CO)[C@@H](O[C@@H]2O[C@H](CO)[C@H](O)[C@H](O)[C@H]2O)[C@H](O)[C@H]1OC(=O)c1cccc2ccccc12")
"530 µM"
>>> value_observed("COc1cccc(C(=O)N[C@H]2[C@@H](O)[C@@H](CO)O[C@@H](S[C@@H]3O[C@H](CO)[C@H](O)[C@H](NC(=O)c4cccc(OC)c4)[C@H]3O)[C@@H]2O)c1")
"100 µM"
>>> value_observed("O=C(N[C@H]1[C@@H](O)[C@@H](CO)O[C@@H](S[C@@H]2O[C@H](CO)[C@H](O)[C@H](NC(=O)c3ccc4ccccc4c3)[C@H]2O)[C@@H]1O)c1ccc2ccccc2c1")
"> 100 µM"
>>> value_observed("Cc1ccc(C(=O)O[C@H]2[C@@H](O)[C@@H](CO)O[C@@H](S[C@@H]3O[C@H](CO)[C@H](O)[C@H](OC(=O)c4ccc(C)cc4)[C@H]3O)[C@@H]2O)cc1")
"135 µM"

----------
System Tested: Galectin-1 (Homo sapiens, UniProt P09382)
Sequence (P09382 whole entry): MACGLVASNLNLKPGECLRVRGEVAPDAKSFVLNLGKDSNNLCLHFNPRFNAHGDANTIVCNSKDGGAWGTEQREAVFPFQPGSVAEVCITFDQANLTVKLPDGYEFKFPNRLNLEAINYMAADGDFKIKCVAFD
Test Protocol: Binding affinity to galectin 1 at 20 degC by fluorescence polarization assay
This listing pairs compounds with measured Kd.
Recorded Metric: Kd

>>> value_observed("Cc1ccc(C(=O)O[C@H]2[C@@H](O)[C@@H](CO)O[C@@H](S[C@@H]3O[C@H](CO)[C@H](O)[C@H](OC(=O)c4ccc(C)cc4)[C@H]3O)[C@@H]2O)cc1")
"10.3 µM"
>>> value_observed("O=C(O[C@H]1[C@@H](O)[C@@H](CO)O[C@@H](S[C@@H]2O[C@H](CO)[C@H](O)[C@H](OC(=O)c3cccc4ccccc34)[C@H]2O)[C@@H]1O)c1cccc2ccccc12")
"16.8 µM"
>>> value_observed("O=C(O[C@H]1[C@@H](O)[C@@H](CO)O[C@@H](S[C@@H]2O[C@H](CO)[C@H](O)[C@H](OC(=O)c3ccc4ccccc4c3)[C@H]2O)[C@@H]1O)c1ccc2ccccc2c1")
"14.7 µM"
>>> value_observed("O=C(O[C@H]1[C@@H](O)[C@@H](CO)O[C@@H](S[C@@H]2O[C@H](CO)[C@H](O)[C@H](OC(=O)c3ccccc3)[C@H]2O)[C@@H]1O)c1ccccc1")
"6.4 µM"
>>> value_observed("COc1cccc(C(=O)O[C@H]2[C@@H](O)[C@@H](CO)O[C@@H](S[C@@H]3O[C@H](CO)[C@H](O)[C@H](OC(=O)c4cccc(OC)c4)[C@H]3O)[C@@H]2O)c1")
"4.4 µM"

----------
System Tested: Galectin-1 (Homo sapiens)
Test Protocol: Binding affinity to galectin 1 at 0 degC by fluorescence polarization assay
pKd: −log10 of the molar value.
Recorded Metric: pKd

>>> value_observed("CO[C@@H]1O[C@H](CO)[C@@H](O[C@@H]2O[C@H](CO)[C@H](O)[C@H](NC(=O)c3cccc4ccccc34)[C@H]2O)[C@H](O)[C@H]1NC(C)=O")
4.60
>>> value_observed("CO[C@@H]1O[C@H](CO)[C@@H](O[C@@H]2O[C@H](CO)[C@H](O)[C@H](O)[C@H]2O)[C@H](O)[C@H]1OC(=O)c1cccc2ccccc12")
4.85
>>> value_observed("O=C(N[C@H]1[C@@H](O)[C@@H](CO)O[C@@H](S[C@@H]2O[C@H](CO)[C@H](O)[C@H](NC(=O)c3ccccc3)[C@H]2O)[C@@H]1O)c1ccccc1")
4.46
>>> value_observed("COc1cccc(C(=O)N[C@H]2[C@@H](O)[C@@H](CO)O[C@@H](S[C@@H]3O[C@H](CO)[C@H](O)[C@H](NC(=O)c4cccc(OC)c4)[C@H]3O)[C@@H]2O)c1")
5.70
>>> value_observed("O=C(N[C@H]1[C@@H](O)[C@@H](CO)O[C@@H](S[C@@H]2O[C@H](CO)[C@H](O)[C@H](NC(=O)c3ccc4ccccc4c3)[C@H]2O)[C@@H]1O)c1ccc2ccccc2c1")
5.02

----------
pKd: −log10 of the molar value.
The following molecules each carry a recorded pKd for Galectin-7 (Homo sapiens, UniProt P47929).
Recorded Metric: pKd

>>> value_observed("O=C(O[C@H]1[C@@H](O)[C@@H](CO)O[C@@H](S[C@@H]2O[C@H](CO)[C@H](O)[C@H](OC(=O)c3ccccc3)[C@H]2O)[C@@H]1O)c1ccccc1")
4.66
>>> value_observed("CO[C@@H]1O[C@H](CO)[C@@H](O[C@@H]2O[C@H](CO)[C@H](O)[C@H](NC(=O)c3cccc4ccccc34)[C@H]2O)[C@H](O)[C@H]1NC(C)=O")
5.12
>>> value_observed("O=C(O[C@H]1[C@@H](O)[C@@H](CO)O[C@@H](S[C@@H]2O[C@H](CO)[C@H](O)[C@H](OC(=O)c3ccc4ccccc4c3)[C@H]2O)[C@@H]1O)c1ccc2ccccc2c1")
4.32

----------
System Tested: Galectin-7 (Homo sapiens)
Sequence (P47929 whole entry): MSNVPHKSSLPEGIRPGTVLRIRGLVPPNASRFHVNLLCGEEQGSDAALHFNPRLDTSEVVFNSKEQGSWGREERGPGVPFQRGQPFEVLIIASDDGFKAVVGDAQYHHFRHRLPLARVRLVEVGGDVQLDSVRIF
Recorded Metric: Kd (µM)

>>> value_observed("CO[C@@H]1O[C@H](CO)[C@@H](O[C@@H]2O[C@H](CO)[C@H](O)[C@H](O)[C@H]2O)[C@H](O)[C@H]1OC(=O)c1cccc2ccccc12")
54
>>> value_observed("O=C(N[C@H]1[C@@H](O)[C@@H](CO)O[C@@H](S[C@@H]2O[C@H](CO)[C@H](O)[C@H](NC(=O)c3ccccc3)[C@H]2O)[C@@H]1O)c1ccccc1")
4.3
>>> value_observed("O=C(N[C@H]1[C@@H](O)[C@@H](CO)O[C@@H](S[C@@H]2O[C@H](CO)[C@H](O)[C@H](NC(=O)c3ccc4ccccc4c3)[C@H]2O)[C@@H]1O)c1ccc2ccccc2c1")
1.7

----------
Entries with their measured Kd, system Galectin-9 (Homo sapiens, UniProt O00182):
Recorded Metric: Kd

>>> value_observed("COc1cccc(C(=O)O[C@H]2[C@@H](O)[C@@H](CO)O[C@@H](S[C@@H]3O[C@H](CO)[C@H](O)[C@H](OC(=O)c4cccc(OC)c4)[C@H]3O)[C@@H]2O)c1")
"1.4 µM"
>>> value_observed("CO[C@@H]1O[C@H](CO)[C@@H](O[C@@H]2O[C@H](CO)[C@H](O)[C@H](O)[C@H]2O)[C@H](O)[C@H]1OC(=O)c1cccc2ccccc12")
"1.6 µM"
>>> value_observed("COc1cccc(C(=O)N[C@H]2[C@@H](O)[C@@H](CO)O[C@@H](S[C@@H]3O[C@H](CO)[C@H](O)[C@H](NC(=O)c4cccc(OC)c4)[C@H]3O)[C@@H]2O)c1")
"1.8 µM"
>>> value_observed("O=C(O[C@H]1[C@@H](O)[C@@H](CO)O[C@@H](S[C@@H]2O[C@H](CO)[C@H](O)[C@H](OC(=O)c3ccccc3)[C@H]2O)[C@@H]1O)c1ccccc1")
"2.2 µM"
>>> value_observed("O=C(N[C@H]1[C@@H](O)[C@@H](CO)O[C@@H](S[C@@H]2O[C@H](CO)[C@H](O)[C@H](NC(=O)c3ccc4ccccc4c3)[C@H]2O)[C@@H]1O)c1ccc2ccccc2c1")
"0.73 µM"

----------
System Tested: Galectin-3 (Homo sapiens)
Sequence (P17931 whole entry): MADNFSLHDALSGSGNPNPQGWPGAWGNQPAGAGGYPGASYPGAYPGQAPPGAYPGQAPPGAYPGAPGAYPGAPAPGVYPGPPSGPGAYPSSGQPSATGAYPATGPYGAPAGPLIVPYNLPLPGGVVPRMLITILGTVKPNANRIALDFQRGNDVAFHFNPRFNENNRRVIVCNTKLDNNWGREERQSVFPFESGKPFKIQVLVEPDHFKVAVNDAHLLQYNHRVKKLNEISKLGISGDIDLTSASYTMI
pKd: −log10 of the molar value.
We use 5 as the dividing line for pKd: on or above the line is Yes, below is No.

>>> assigned_label("O=C(O[C@H]1[C@@H](O)[C@@H](CO)O[C@@H](S[C@@H]2O[C@H](CO)[C@H](O)[C@H](OC(=O)c3cccc4ccccc34)[C@H]2O)[C@@H]1O)c1cccc2ccccc12")
"Yes"
>>> assigned_label("CO[C@@H]1O[C@H](CO)[C@@H](O[C@@H]2O[C@H](CO)[C@H](O)[C@H](NC(=O)c3cccc4ccccc34)[C@H]2O)[C@H](O)[C@H]1NC(C)=O")
"Yes"
>>> assigned_label("CC(=O)N[C@@H]1[C@@H](O)[C@H](O[C@@H]2O[C@H](CO)[C@H](O)[C@H](O)[C@H]2O)[C@@H](CO)O[C@H]1O")
"No"
>>> assigned_label("O=C(N[C@H]1[C@@H](O)[C@@H](CO)O[C@@H](S[C@@H]2O[C@H](CO)[C@H](O)[C@H](NC(=O)c3ccc4ccccc4c3)[C@H]2O)[C@@H]1O)c1ccc2ccccc2c1")
"Yes"
